test: Plasma PK of Tadalafil and Vardenafil after a single oral dose (LC/MS/MS); assay type: in vivo, mice; conditions: mouse, NSG mice, single oral dose 100 mg/kg, 1 hour post dose, read-out: Plasma levels
MEASURE NAME: concentration at 1 h (µM)
# number only, unit µM dropped from output

Exam item: concentration at 1 h for CN1CC(=O)N2[C@H](c3ccc4c(c3)OCO4)c3[nH]c4ccccc4c3C[C@@H]2C1=O ?
Marked response: 53.3
